Target sequence: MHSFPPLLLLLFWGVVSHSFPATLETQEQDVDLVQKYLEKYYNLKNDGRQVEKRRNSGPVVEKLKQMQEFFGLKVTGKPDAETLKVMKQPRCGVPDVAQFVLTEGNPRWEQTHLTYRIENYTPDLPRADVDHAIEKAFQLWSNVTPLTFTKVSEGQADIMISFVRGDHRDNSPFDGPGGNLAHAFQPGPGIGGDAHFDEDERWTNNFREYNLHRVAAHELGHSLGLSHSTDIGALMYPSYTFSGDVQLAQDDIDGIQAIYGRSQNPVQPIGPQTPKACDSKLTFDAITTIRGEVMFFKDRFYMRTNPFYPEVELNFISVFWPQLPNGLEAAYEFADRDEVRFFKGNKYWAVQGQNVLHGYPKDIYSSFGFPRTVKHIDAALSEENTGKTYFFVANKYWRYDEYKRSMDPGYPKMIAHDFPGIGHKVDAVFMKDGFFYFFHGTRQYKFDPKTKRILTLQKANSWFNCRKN
For each record, write down the corresponding pKi.
Please keep in mind that pKi is minus log10 of the molar concentration; only the number is needed.

Query: pKi; subject: `CC(C)(C)OC(=O)[C@H](Cc1ccccc1)NC(=O)[C@H](CCCc1ccccc1)[C@@](C)(O)C(=O)NO` 6.70

And then `CNC(=O)[C@H](CCCN)NC(=O)[C@H](CCCc1ccccc1)[C@@](C)(O)C(=O)NO` , what is it? 7.74

Then `CNC(=O)[C@H](Cc1ccc(OC)cc1)NC(=O)[C@H](CCCc1ccccc1)[C@@](C)(O)C(=O)NO` ? 8.70

Also `CNC(=O)[C@H](Cc1ccc(OC)cc1)NC(=O)[C@H](CCc1ccccc1)[C@@](C)(O)C(=O)NO` ? 7.48

----------
- assayed-system: Matrix metalloproteinase-9 (Homo sapiens, UniProt P14780)
- Sequence (P14780 whole entry): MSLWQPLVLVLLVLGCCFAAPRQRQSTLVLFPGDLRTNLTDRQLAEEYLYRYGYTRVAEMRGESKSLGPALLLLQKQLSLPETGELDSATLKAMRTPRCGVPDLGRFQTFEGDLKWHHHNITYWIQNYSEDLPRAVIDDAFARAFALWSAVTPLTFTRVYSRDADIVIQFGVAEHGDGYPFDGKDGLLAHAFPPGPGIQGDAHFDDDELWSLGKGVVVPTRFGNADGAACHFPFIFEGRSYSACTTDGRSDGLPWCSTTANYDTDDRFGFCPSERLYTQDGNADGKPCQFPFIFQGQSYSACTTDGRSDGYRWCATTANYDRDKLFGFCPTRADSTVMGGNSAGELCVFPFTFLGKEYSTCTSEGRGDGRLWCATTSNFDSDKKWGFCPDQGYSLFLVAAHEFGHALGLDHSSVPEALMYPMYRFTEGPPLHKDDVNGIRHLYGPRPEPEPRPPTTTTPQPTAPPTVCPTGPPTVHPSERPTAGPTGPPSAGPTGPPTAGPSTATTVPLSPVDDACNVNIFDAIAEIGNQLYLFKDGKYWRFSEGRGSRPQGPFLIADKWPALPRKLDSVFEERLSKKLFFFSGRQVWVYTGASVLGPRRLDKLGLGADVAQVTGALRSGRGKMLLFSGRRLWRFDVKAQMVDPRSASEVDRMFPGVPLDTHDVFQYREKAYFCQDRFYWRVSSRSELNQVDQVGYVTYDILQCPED
metric-name: pKi
pKi field: float, defined as -log10 of concentration (mol/L).

Reported pKi for Matrix metalloproteinase-9 (Homo sapiens, UniProt P14780), given `CNC(=O)[C@H](CCCN)NC(=O)[C@H](CCCc1ccccc1)[C@@](C)(O)C(=O)NO` ? 8.30

Please give the result for `CNC(=O)[C@H](CCCNS(=O)(=O)N(C)C)NC(=O)[C@H](CCCc1ccccc1)[C@@](C)(O)C(=O)NO` too. 8.70

Moving on to the next molecule: `CNC(=O)[C@H](CCCNC(=O)N1CCOCC1)NC(=O)[C@H](CCCc1ccccc1)[C@@](C)(O)C(=O)NO` 8.40

----------
Would you mind telling me the reported pKi of each entry?
- assayed-system: Stromelysin-1 (Homo sapiens)
- Sequence (P08254 whole entry): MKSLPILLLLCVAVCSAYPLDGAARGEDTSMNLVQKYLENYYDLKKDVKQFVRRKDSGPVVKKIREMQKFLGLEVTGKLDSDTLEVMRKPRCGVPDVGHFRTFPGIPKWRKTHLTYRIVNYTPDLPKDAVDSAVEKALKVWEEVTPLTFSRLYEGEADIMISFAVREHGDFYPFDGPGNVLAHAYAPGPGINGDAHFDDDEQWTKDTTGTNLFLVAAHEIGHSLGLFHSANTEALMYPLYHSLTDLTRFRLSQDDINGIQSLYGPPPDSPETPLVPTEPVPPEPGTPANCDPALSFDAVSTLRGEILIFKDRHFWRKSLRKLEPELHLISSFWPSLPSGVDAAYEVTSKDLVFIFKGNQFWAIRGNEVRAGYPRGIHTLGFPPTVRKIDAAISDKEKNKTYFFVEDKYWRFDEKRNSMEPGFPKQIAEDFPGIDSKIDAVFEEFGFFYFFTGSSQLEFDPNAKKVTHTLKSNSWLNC
// pKi: -log10(molar conc.)

Reported pKi, molecule `CC(C)(C)OC(=O)[C@H](Cc1ccccc1)NC(=O)[C@H](CCCc1ccccc1)[C@@](C)(O)C(=O)NO` : ____ 7.00

Record: `CNC(=O)[C@H](Cc1ccc(OC)cc1)NC(=O)[C@H](Cc1ccccc1)[C@@](C)(O)C(=O)NO` 6.28

Also, `CNC(=O)[C@H](CCCN)NC(=O)[C@H](CCCc1ccccc1)[C@@](C)(O)C(=O)NO` please. 6.99

Please do the same for `CNC(=O)[C@@H](NC(=O)[C@H](CCCc1ccccc1)[C@@](C)(O)C(=O)NO)C(C)(C)C` as well. 7.89
